# Assay Text: Tmax in Balb/c mouse at 10 mg/kg, ip by LC-MS/MS analysis
# Assay type: ADME, organism-based
# Protocol Conditions: in vivo
Quantity Name: Tmax (h)
Respond with the bare value in h.

Ask: Query (compound): N#Cc1cccc(-c2c[nH]c3ncc(-c4cnn(C5CCNCC5)c4)cc23)c1 ; field requested: Tmax
Result: 1

---

# Assay Text: Intrinsic clearance in human liver microsomes assessed per mg protein by LC-MS/MS analysis
# Type: ADME, Microsome
Quantity Name: CLint

                                   molecule    measurement
0  Cn1cc(-c2cnc3[nH]cc(-c4ccc(Cl)c(Cl)c4)c3c2)cn1   51 µL/min/mg
1  CC(C)(C)OC(=O)N1CCN(c2cnc3[nH]cc(-c4cccc(C#N)c4)c3c2)CC1   94 µL/min/mg
2  CN1CCN(c2cnc3[nH]cc(-c4cccc(C#N)c4)c3c2)CC1   44 µL/min/mg
3   Cn1cc(-c2cnc3[nH]cc(-c4ccccc4F)c3c2)cn1  150 µL/min/mg
4  Cn1cc(-c2cnc3[nH]cc(-c4ccc(C(=O)O)cc4)c3c2)cn1  < 3 µL/min/mg
5  CC(C)(C)OC(=O)N1CCC(n2cc(-c3cnc4[nH]cc(-c5cccc(C#N)c5)c4c3)cn2)CC1   91 µL/min/mg
6  Cn1cc(-c2cnc3[nH]cc(C4CCCNC4)c3c2)cn1 (stereo not given)  < 3 µL/min/mg
7   N#Cc1cccc(-c2c[nH]c3ncc(N4CCCC4)cc23)c1   50 µL/min/mg
8  c1cc(-c2c[nH]c3ncc(-c4cnn(C5CCOCC5)c4)cc23)ccn1   29 µL/min/mg

Lab note: next molecule to report on.
Ask: // returns reported CLint for input CN1CCC(n2cc(-c3cnc4[nH]cc(-c5cccc(C#N)c5)c4c3)cn2)CC1
Result: 17 µL/min/mg

---

Measured CLint values are reported for all entries that follow.
# Assay Text: Intrinsic clearance in human liver microsomes assessed per mg protein by LC-MS/MS analysis
# Type: ADME, Microsome
Unit µL/min/mg implied. Number only.

In [3]: df
Out[3]:
                                     smiles  quantity_name  reading_unit  measurement
0  Cn1cc(-c2cnc3[nH]cc(-c4cccc(N)c4)c3c2)cn1          CLint     µL/min/mg          290
1  N#Cc1cccc(-c2c[nH]c3ncc(-c4cncnc4)cc23)c1          CLint     µL/min/mg           31
2  N#Cc1cccc(-c2c[nH]c3ncc(-c4cn[nH]c4)cc23)c1          CLint     µL/min/mg          290
3  Cn1cc(-c2cnc3[nH]cc(-c4ccc5nonc5c4)c3c2)cn1          CLint     µL/min/mg           88

Ask: Which CLint value is on record for Cn1cc(-c2cnc3[nH]cc(-c4cncc(C#N)c4)c3c2)cn1 ?
Result: 150

---

Known log10 of CLint of a selection of compounds
# Assay Text: Intrinsic clearance in human liver microsomes assessed per mg protein by LC-MS/MS analysis
# Format: ADME, Microsome
Remember, log10 of CLint, in µL/min/mg.

These recorded examples may help you get a feel for the data.
In [3]: df
Out[3]:
                                   compound  measurement
0  CN1CCCN(c2cnc3[nH]cc(-c4cccc(C#N)c4)c3c2)CC1         1.91
1  Cn1cc(Nc2cnc3[nH]cc(-c4cccc(C#N)c4)c3c2)cn1         1.18
2  Cn1cc(-c2cnc3[nH]cc(-c4ccc(C(N)=O)cc4)c3c2)cn1         1.15
3  Cn1cc(-c2cnc3[nH]cc(-c4ccc5[nH]ccc5c4)c3c2)cn1         2.48
4  Cc1nn(C)c(C)c1-c1cnc2[nH]cc(-c3cccc(C#N)c3)c2c1         2.48
5  Cn1cc(-c2cnc3[nH]cc(-c4ccc(F)c(F)c4)c3c2)cn1         1.95
6  Cn1cc(-c2cnc3[nH]cc(-c4ccccc4C#N)c3c2)cn1         2.30
7  Cn1cc(-c2cnc3[nH]cc(-c4ccc(F)cc4)c3c2)cn1         2.11

# next compound below
Ask: Give the measured log10 of CLint of Cn1cc(-c2cnc3[nH]cc(C4CCNCC4)c3c2)cn1 .
Result: 0.48

---

# Assay Text: Intrinsic clearance in human liver microsomes assessed per mg protein by LC-MS/MS analysis
# Type: ADME, Microsome
Quantity Name: log10(CLint) (log10 of the value in µL/min/mg)
Remember, log10 of CLint, in µL/min/mg.

In [3]: df
Out[3]:
                                   compound  quantity_name  measurement
0  Cn1cc(-c2ccc3[nH]cc(-c4cccc(C#N)c4)c3c2)cn1   log10(CLint)         2.28
1  Cn1cc(-c2cnc3[nH]cc(C4CCN(C(=O)OC(C)(C)C)CC4)c3c2)cn1   log10(CLint)         2.48
2  COc1ccc(-c2c[nH]c3ncc(-c4cnn(C)c4)cc23)cc1   log10(CLint)         2.26
3    Cn1cc(-c2cnc3[nH]cc(-c4ccccc4)c3c2)cn1   log10(CLint)         2.30
4    Cn1cc(-c2cnc3[nH]cc(-c4cccnc4)c3c2)cn1   log10(CLint)         1.95
5  Cn1cc(-c2cnc3c(c2)c(-c2cccc(C#N)c2)cn3C)cn1   log10(CLint)         2.26
6  Cn1cc(-c2cnc3[nH]cc(-c4cccc(C#N)c4)c3c2)cn1   log10(CLint)         2.28
7  Cn1cc(-c2cnc3[nH]cc(-c4ccc(F)c(C#N)c4)c3c2)cn1   log10(CLint)         1.81
8  Cc1ccc(S(=O)(=O)n2cc(-c3cccc(C#N)c3)c3cc(-c4cnn(C)c4)cnc32)cc1   log10(CLint)         1.18
9  Cn1cc(-c2cnc3[nH]cc(C4CCN(C(=O)OC(C)(C)C)C4)c3c2)cn1 (stereo not given)   log10(CLint)         2.26

Now consider a different compound.
Ask: Find the recorded log10(CLint) belonging to Cn1cc(-c2cnc3occ(-c4cccc(C#N)c4)c3c2)cn1 and report it.
Result: 2.11

---

# Assay Text: Intrinsic clearance in human liver microsomes assessed per mg protein by LC-MS/MS analysis
# Type: ADME, Microsome
# CLint listing for each entry below
Write it as a number; the unit µL/min/mg goes unstated.

Below: 10 molecules and their reported CLint.
                                     smiles  reading_unit  measurement
0  Cn1cc(-c2cnc3[nH]cc(-c4ccc(O)cc4)c3c2)cn1     µL/min/mg           50
1  Cn1cc(-c2cnc3[nH]cc(-c4cc(F)cc(C#N)c4)c3c2)cn1     µL/min/mg           91
2  N#Cc1cccc(-c2n[nH]c3ncc(-c4cnn(C5CCOCC5)c4)cc23)c1     µL/min/mg           42
3  Cn1cc(-c2cnc3[nH]cc(-c4cccc(F)c4)c3c2)cn1     µL/min/mg          110
4  Cn1cc(-c2cnc3[nH]cc(-c4ccc(Cl)cc4)c3c2)cn1     µL/min/mg           57
5  N#Cc1cccc(-c2c[nH]c3ncc(-c4cnn(C5CCOCC5)c4)cc23)c1     µL/min/mg           46
6  CS(=O)(=O)N1CCN(c2cnc3[nH]cc(-c4cccc(C#N)c4)c3c2)CC1     µL/min/mg           32
7  Cn1cc(-c2cnc3[nH]cc(-c4cccc([N+](=O)[O-])c4)c3c2)cn1     µL/min/mg           14
8  Cn1cc(-c2cnc3[nH]cc(-c4ccc(C#N)cc4)c3c2)cn1     µL/min/mg           51
9  Cc1ccc(-c2c[nH]c3ncc(-c4cnn(C)c4)cc23)cc1     µL/min/mg          130

Ask: Given N#Cc1cccc(-c2c[nH]c3ncc(-c4ccncc4)cc23)c1 , state its recorded CLint.
Result: 160

Ask: Give the measured CLint of Cn1cc(-c2cnc3[nH]cc(-c4ccnc(C#N)c4)c3c2)cn1 .
Result: 190

Ask: Recorded CLint of N#Cc1cccc(-c2c[nH]c3ncc(N4CCCCC4)cc23)c1 , please.
Result: 300

Ask: Requested read-out: CLint. Entry: CS(=O)(=O)c1ccc(-c2cnc3[nH]cc(-c4cccc(C#N)c4)c3c2)cc1
Result: 30

Ask: Requested read-out: CLint. Entry: Cn1cc(-c2cnc3[nH]cc(-c4ccncc4)c3c2)cn1
Result: 39

Ask: Given the entry Cc1c(-c2cnn(C)c2)cnc2[nH]cc(-c3cccc(C#N)c3)c12 , report its measured CLint.
Result: 210

Ask: Looking for the measured CLint of Cn1cc(-c2c[nH]c3ncc(-c4cccc(C#N)c4)cc23)cn1 , can you help?
Result: 300

Ask: I have this molecule here, CS(=O)(=O)c1ccc(Nc2cnc3[nH]cc(-c4cccc(C#N)c4)c3c2)cc1 , and I need its recorded CLint.
Result: 33

Ask: Dear colleague, I am looking for the recorded CLint of the following molecule: Cc1nn(C)cc1-c1cnc2[nH]cc(-c3cccc(C#N)c3)c2c1
Result: 250
